Catalogue of compounds with associated melting point

Here is how some compounds turned out for melting point.
[[record]]
compound = "COc1cc(OCc2ccccn2)ccc1/C=C/c1cc(/C=C/c2ccc3[nH]nnc3c2)[nH]n1 [Example 30]"
result_value = "113 to 120 °C"

[[record]]
compound = "COc1cc(OCc2ccccn2)ccc1/C=C/c1cc(/C=C/c2cc3ccccc3[nH]2)[nH]n1 [Example 36]"
result_value = "150.8 to 151.6 °C"


Recorded melting point of COc1cc(OCCN2CCOCC2)ccc1/C=C/c1cc(/C=C/c2ccc3cc[nH]c3c2)[nH]n1 [Example 27] , please. 113 to 122 °C

Now consider COc1cc(/C=C/c2cc(/C=C/c3ccc4[nH]ccc4c3)[nH]n2)ccc1OCc1ccccn1 [Example 5] . 96 to 101 °C
